- target-or-system: T1, soluble human FcRn (shFcRn) (human, UniProt P55899 24-297; P61769 21-119, biotinylated with Sulfo-NHS-LC-Biotin in the ELISA; amine-coupled to a CM5 chip in SPR)
- T1 construct: also called biotinylated shFcRn
- T1 sequence (P55899 24-297 limits assumed, chain 1 of 2): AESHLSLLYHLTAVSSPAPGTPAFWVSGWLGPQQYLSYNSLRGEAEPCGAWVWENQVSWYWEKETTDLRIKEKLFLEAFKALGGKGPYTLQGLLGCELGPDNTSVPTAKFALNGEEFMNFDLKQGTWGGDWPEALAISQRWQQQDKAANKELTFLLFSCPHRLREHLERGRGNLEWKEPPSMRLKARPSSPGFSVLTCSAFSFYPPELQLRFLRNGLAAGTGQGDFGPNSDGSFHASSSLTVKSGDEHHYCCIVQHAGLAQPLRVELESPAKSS
- T1 sequence (P61769 21-119 limits assumed, chain 2 of 2): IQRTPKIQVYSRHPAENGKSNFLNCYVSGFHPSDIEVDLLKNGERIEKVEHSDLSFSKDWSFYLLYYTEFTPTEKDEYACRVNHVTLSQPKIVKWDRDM
- experiment-description: SPR, pH 6; small-letter c (D-cysteine) at both Cys positions
- Protocol: The following steps were performed to cross-link soluble human or cynomolgus FcRn to the dextran surface of a CM5 sensor chip (Biacore AB, Uppsala, Sweden) by an amine coupling reaction involving 1-ethyl-(3-dimethylaminopropyl)-carbodiimide hydrochloride (EDC) (Biacore AB, Uppsala, Sweden) and N-hydroxysuccinimide (NHS) (Biacore AB, Uppsala, Sweden) as recommended by Biacore (BIAapplications Handbook, version AB, section 4.2, Biacore AB, Uppsala, Sweden). […]
measured-metric: pKd
Give bare numbers, as −log10 of the molar value.

[ask] Entry QRFXTGHFGGLYPXNGP (D-Cys4; D-Cys14; disulfide; C-terminal amide) [Peptide No. 31] needs its pKd filled in; supply it.
[reply] 3.70
